assay: in vitro; conditions: human
READOUT LABEL: IC50 (mg/L)
Please reply with the bare figure in mg/L and do not write the unit itself.

Look over these answered cases.
COc1ccc(-c2cc(=O)c3c(OC)cc(OC)c(C4C(=O)c5c(OC)cc(OC)cc5OC4c4ccc(OC)cc4)c3o2)cc1 (centres unmarked) ... 47
O=C1CC(c2ccc(O)cc2)Oc2cc(O)c(-c3c(O)cc(O)c4c3OC(c3ccc(O)cc3)CC4=O)c(O)c21 (centres unmarked) ... 47
O=c1cc(-c2ccc(O)c(-c3c(O)cc4oc(-c5ccc(O)cc5)cc(=O)c4c3O)c2)oc2cc(O)cc(O)c12 ... 56
O=c1cc(-c2ccc(O)c(-c3c(O)cc(O)c4c(=O)cc(-c5ccc(O)cc5)oc34)c2)oc2cc(O)cc(O)c12 ... 18

Now consider a different compound.
q: Endpoint output: IC50 of O=C1CC(c2ccc(O)cc2)Oc2cc(O)c(-c3c(O)cc4c(c3O)C(=O)CC(c3ccc(O)cc3)O4)c(O)c21 (centres unmarked) . Value?
a: 22

###

system: Hepatitis B Virus (HBV); assay: Inhibition of HBV replication in 2.2.15 cells, extracellular (virion) HBV DNA; settings: Hepatitis B virus, 216 h, read-out: EC50 (50% effective dose), HBV Virion, 2.2.15 cells, extracellular (virion) HBV DNA, 9 days treatment;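 note: extracellular virion HBV DNA in culture medium measured by slot blot hybridization with a 32P-labeled HBV probe, quantified against HBV DNA standards, after 9 days of daily dosing, compared with day 0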
# maps each entry to its pEC50
Value format note: pEC50 is -log10 of concentration (mol/L); just state the number.

Look over these answered cases.
COc1ccc(-c2cc(=O)c3c(OC)cc(OC)c(C4C(=O)c5c(OC)cc(OC)cc5OC4c4ccc(OC)cc4)c3o2)cc1 (stereo not drawn) ... 4.96
Nc1ccn([C@@H]2CS[C@H](CO)O2)c(=O)n1 [Lamivudine (3TC), lamivudine, reference compound] ... 7.42

Now consider a different compound.
q: Endpoint output: pEC50 of Nc1nc2c(ncn2CCC(CO)CO)c(=O)[nH]1 [Penciclovir, penciclovir, reference compound] . Value?
a: 6.72

###

# maps each entry to its IC50
test: in vitro; settings: dog, Neutral Red IC50 (cytotoxic), Influenza B test
Please reply with the bare figure in µg/mL and do not write the unit itself.

Look over these answered cases.
O=c1cc(-c2ccc(O)c(-c3c(O)cc4oc(-c5ccc(O)cc5)cc(=O)c4c3O)c2)oc2cc(O)cc(O)c12 [Robustaflavone (3), robustaflavone] ... 100
O=C1CC(c2ccc(O)cc2)Oc2cc(O)c(-c3c(O)cc4c(c3O)C(=O)CC(c3ccc(O)cc3)O4)c(O)c21 (stereo not shown) [Succedaneaflavanone (11), succedaneaflavanone] ... 7

Now consider a different molecule.
q: Endpoint output: IC50 of O=c1cc(-c2ccc(Oc3c(O)cc4oc(-c5ccc(O)cc5)cc(=O)c4c3O)cc2)oc2cc(O)cc(O)c12 [Hinokiflavone (4), hinokiflavone] . Value?
a: 2

###

system: HSV-1; assay: HSV-1 CPE inhibition in HFF cells; details: HFF Cells
READOUT LABEL: HSV-1 SI (CC50/EC50)

CC(=O)Oc1ccc([C@@H]2CC(=O)c3c(cc(OC(C)=O)c(-c4c(OC(C)=O)cc5c(c4OC(C)=O)C(=O)C[C@@H](c4ccc(OC(C)=O)cc4)O5)c3OC(C)=O)O2)cc1 [Succedaneaflavanone hexaacetate (12), succedaneaflavanone hexaacetate] ... <4.4
O=C1CC(c2ccc(O)cc2)Oc2cc(O)c(-c3c(O)cc(O)c4c3OC(c3ccc(O)cc3)CC4=O)c(O)c21 (stereo not shown) ... 0
O=c1cc(-c2ccc(O)c(-c3c(O)cc(O)c4c(=O)cc(-c5ccc(O)cc5)oc34)c2)oc2cc(O)cc(O)c12 ... >5.6

q: Kindly state the measured HSV-1 SI (CC50/EC50) obtained for COc1ccc(-c2cc(=O)c3c(OC)cc(OC)c(C4C(=O)c5c(OC)cc(OC)cc5OC4c4ccc(OC)cc4)c3o2)cc1 (stereo not shown) with HSV-1.
a: 0

q: Kindly state the measured HSV-1 SI (CC50/EC50) obtained for CC(=O)Oc1ccc([C@@H]2CC(=O)c3c(cc(OC(C)=O)c(-c4c(OC(C)=O)cc(OC(C)=O)c5c4O[C@H](c4ccc(OC(C)=O)cc4)CC5=O)c3OC(C)=O)O2)cc1 [Rhusflavanone hexaacetate (10), rhusflavanone hexaacetate] with HSV-1.
a: <4.6

q: Kindly state the measured HSV-1 SI (CC50/EC50) obtained for `O=c1cc(-c2ccc(Oc3c(O)cc4oc(-c5ccc(O)cc5)cc(=O)c4c3O)cc2)oc2cc(O)cc(O)c12` with HSV-1.
a: <3.9

q: Kindly state the measured HSV-1 SI (CC50/EC50) obtained for O=C1CC(c2ccc(O)cc2)Oc2cc(O)c(-c3c(O)cc4c(c3O)C(=O)CC(c3ccc(O)cc3)O4)c(O)c21 (stereo not shown) with HSV-1.
a: <3.0
